Where do the numbers come from? From the METLIN SMRT retention time set (Domingo-Almenara et al. 2019).

Parameter: RP-LC retention time. Scope: all listed entries.
experiment: gradient 5% acetonitrile 3 min, to 50% in 2 min, to 85% in 15 min, held 3 min, 100 µL/min; details: column: Zorbax Extend-C18 2.1 x 50 mm; eluents: water / acetonitrile, 0.1% formic acid
Respond numerically; units are s and should not be typed.

[[record]]
molecule = "COCCn1cc(C(=O)Nc2cccc(F)c2)c2nn(-c3ccccc3)c(=O)c-2c1"
result_type = "RP-LC retention time"
numeric_value = 970


Memo: Cc1c(-c2nnc(C(=O)NCCCN3CCCC3)o2)oc2c(C)cccc12 , reported RP-LC retention time: 688

Memo: COc1ccc(Cl)c2c(=O)c3c([nH]c12)CCN(CC(=O)Nc1cccc(Cl)c1)C3 , reported RP-LC retention time: 645

Memo: COc1ccc(OC)c(CNC(=O)Cc2nnc(-c3cnccn3)o2)c1 , reported RP-LC retention time: 616

Memo: COc1ccc(Nc2ncc(C(=O)O)c3ccccc23)cc1 , reported RP-LC retention time: 599

Memo: CCOc1ccc(N(CC)C(=O)c2nc(C)n(C3CCN(S(C)(=O)=O)CC3)c2C)cc1 , reported RP-LC retention time: 640

Memo: COc1cccc(N2CC(C)Cn3c2nc2c3c(=O)n(Cc3c(F)cccc3Cl)c(=O)n2C)c1 (centres undefined) , reported RP-LC retention time: 1080

Memo: CC(C)Oc1ccc(CN2CCC3(CC2)CN(C)CC3c2nnc(C(C)C)o2)cc1 (centres undefined) , reported RP-LC retention time: 577

Memo: O=C(NCCNC(=O)c1ccc2c(c1)OCO2)c1ccc(NC(=O)C2CC2)cc1 , reported RP-LC retention time: 650

Memo: CCCCOc1ccc(-c2cc3c4nnc(CCC(=O)N5CCC(C(N)=O)CC5)n4ccn3n2)cc1 , reported RP-LC retention time: 729
